Listed here are binders together with their documented Relative Binding Affinity.
assayed.target: T1, KDR (1-3) (UniProt P35968 20-327, limits assumed)
T1 construct: domain: KDR (1-3); Soluble KDR (1-3) at 1 ug/ml, captured on the plate by anti-KDR monoclonal antibody MAKD5; also called KDR (1-3) monomer
T1 sequence (P35968 20-327 limits assumed): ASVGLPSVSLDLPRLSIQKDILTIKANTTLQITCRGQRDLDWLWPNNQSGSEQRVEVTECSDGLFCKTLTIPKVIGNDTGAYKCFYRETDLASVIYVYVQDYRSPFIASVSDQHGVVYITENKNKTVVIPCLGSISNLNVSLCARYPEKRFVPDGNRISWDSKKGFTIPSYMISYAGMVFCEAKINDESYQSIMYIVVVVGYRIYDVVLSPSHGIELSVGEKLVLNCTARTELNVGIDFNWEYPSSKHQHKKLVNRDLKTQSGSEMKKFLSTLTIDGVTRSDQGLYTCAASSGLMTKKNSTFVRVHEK
assay.text: competition ELISA, biotinylated native VEGF (8-109) as tracer, KDR (1-3) captured by mAb MAKD5

Example cases with answers are listed next.
binder: LK-VRB-17s (ligand) APMAEGGGQNHHEVVKFEDVLRRSYCHPIETLVDIFQEYPDEIEYIFKPSCVPLMRCGGCCNSEMRECVPTEESNITMQIMRIKPHQGQHIGEMSFLQHNKCECRPKKD
result: 3 fold of native VEGF (8-109)
//
binder: LK-VRB-14s (ligand) APMAEGGGQNHHEVVKFMDVLRRSYCHPIETLVDIFQEYPDEIEYIFKPSCVPLMRCGGCCNSEMRECVPTEESNITMQIMRIKPHQGQHIGEMSFLQHNKCECRPKKD
result: 0.5 fold of native VEGF (8-109)
//
binder: LK-VRB-26s (ligand) APMAEGGGQNHHEVVKFEDVLRRSSCHPIETLVDIFQEYPDEIEYIFKPSCVPLMRCGGCCNDEMRECVPTEESNITMQIMRIKPHQGQHIGEMSFLQHNKCECRPKKD
result: 23 fold of native VEGF (8-109)
//
binder: LK-VRB-15s (ligand) APMAEGGGQNHHEVVKFMDVLQRSSCHPIETLVDIFQEYPDEIEYIFKPSCVPLMRCGGCCNSEMRECVPTEESNITMQIMRIKPHQGQHIGEMSFLQHNKCECRPKKD
result: 2 fold of native VEGF (8-109)
//
binder: LK-VRB-22s (ligand) APMAEGGGQNHHEVVKFEDVLRRSSCHPIETLVDIFQEYPDEIEYIFKPSCVPLMRCGGCCNDEMLECVPTEESNITMQIMRIKPHQGQHIGEMSFLQHNKCECRPKKD
result: 4 fold of native VEGF (8-109)
//
binder: LK-VRB-25s (ligand) APMAEGGGQNHHEVVKFEDVLRRSSCHPIETLVDIFQEYPDEIEYIFKPSCVPLMRCGGCCNSEGRECVPTEESNITMQIMRIKPHQGQHIGEMSFLQHNKCECRPKKD
result: 4 fold of native VEGF (8-109)
//
binder: LK-VRB-24s (ligand) APMAEGGGQNHHEVVKFEDVLRRSSCHPIETLVDIFQEYPDEIEYIFKPSCVPLMRCGGCCNSEMLECVPTEESNITMQIMRIKPHQGQHIGEMSFLQHNKCECRPKKD
result: 10 fold of native VEGF (8-109)

Quickly give me recorded Relative Binding Affinity for LK-VRB-10s (ligand) APMAEGGGQNHHEVVKFMDVYQRSSCHPIETLVDIFQEYPDEIEYIFKPSCVPLMRCGGCCNSEMRECVPTEESNITMQIMRIKPHQGQHIGEMSFLQHNKCECRPKKD
0.5 fold of native VEGF (8-109)
